- assay_text: Plasma pharmacokinetics after sciatic nerve block in rats
- Assay type: in vivo, rat
- condition_description: both sexes, rat, 200 μl; plasma; Levobupivacaine alone (single drug), sciatic nerve block; mean ± SEM; read-out: Tmax
recorded_metric: Tmax (h)
State the answer as a number, implicitly in h.

Looking up CCCCN1CCCC[C@H]1C(=O)Nc1c(C)cccc1C [Levobupivacaine, levobupivacaine] , I see its Tmax listed as 1.07

====

- assay_text: Drug concentration and pharmacokinetics in sciatic nerve after sciatic nerve block in rats
- Assay type: in vivo, rat
- condition_description: male, rat; sciatic nerve; given as LL-1, sciatic nerve block; n = 5 per time point; mean ± SEM
recorded_metric: Vd/F (L)
I only need the number, in L, no unit after it.

Value of Vd/F reported for the compound CCCCN1CCCC[C@H]1C(=O)Nc1c(C)cccc1C is 1.23
